# System: His-BIR3 (241-356, XIAP) (Homo sapiens, UniProt P98170)
# Construct: additions of His-BIR3 (241-356, XIAP), fluorescein labeled SMAC peptide
# Sequence (P98170 241-356): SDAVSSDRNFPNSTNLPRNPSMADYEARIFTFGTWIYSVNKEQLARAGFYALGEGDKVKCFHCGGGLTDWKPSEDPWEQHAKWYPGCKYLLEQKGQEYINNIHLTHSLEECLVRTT
# Assay: XIAP-BIR3/SMAC Homogeneous Time Resolved Fluorescence (HTRF) Assay
# Experimental context: fluorescein labeled SMAC peptide
Note to self: IC50 under 10 nM means 1, ties and anything higher get -1.

CN[C@@H](C)C(=O)N[C@H](C(=O)N1C[C@@H]2C[C@H]1C(=O)N[C@@H](Cc1ccc3ccccc3c1)C(=O)N[C@H](C(=O)NS(=O)(=O)C1CC1)Cc1ccc(cc1)OCc1cn(nn1)[C@H]1C[C@@H](C(=O)N[C@@H](Cc3ccc4ccccc4c3)C(=O)N[C@H](C(=O)O)Cc3ccc(cc3)OC/C=C/CO2)N(C(=O)[C@@H](NC(=O)[C@H](C)NC)C(C)(C)C)C1)C1CCOCC1 :: -1
CNC(C)C(=O)NC(C(=O)N1CC2CCCCOc3ccc(cc3)CC(C(=O)NS(=O)(=O)CCCNC(C)=O)NC(=O)C(Cc3ccc4ccccc4c3)NC(=O)C3CC(CN3C(=O)C(NC(=O)C(C)NC)C(C)(C)C)n3cc(nn3)COc3ccc(cc3)CC(C(=O)O)NC(=O)C(Cc3ccc4ccccc4c3)NC(=O)C1C2)C(C)(C)C (stereo not drawn) :: 1
CN[C@@H](C)C(=O)N[C@H](C(=O)N1C[C@@H]2C[C@H]1C(=O)N[C@@H](Cc1ccc3ccccc3c1)C(=O)N[C@H](C(=O)O)Cc1ccc(cc1)C(=O)N[C@H]1C[C@@H](C(=O)N[C@@H](Cc3ccc4ccccc4c3)C(=O)N[C@H](C(=O)O)Cc3ccc(cc3)OC/C=C/CO2)N(C(=O)[C@@H](NC(=O)[C@H](C)NC)C(C)(C)C)C1)C(C)C [Example 75] :: 1
CNC(C)C(=O)NC(C(=O)N1CC2CC1C(=O)NC(Cc1ccc3ccccc3c1)C(=O)NC(C(=O)O)Cc1ccc(cc1)OCC=CCOC1CC(C(=O)NC(Cc3ccc4ccccc4c3)C(=O)NC(C(=O)O)CCC(=O)N2)N(C(=O)C(NC(=O)C(C)NC)C(C)(C)C)C1)C(C)(C)C (stereo not drawn) :: -1
CN[C@@H](C)C(=O)N[C@H](C(=O)N1C[C@H]2CCCCOc3ccc(cc3)C[C@@H](c3nnn[nH]3)NC(=O)[C@H](Cc3ccc4ccccc4c3)NC(=O)[C@@H]3C[C@@H](CN3C(=O)[C@@H](NC(=O)[C@H](C)NC)C(C)(C)C)n3cc(nn3)COc3ccc(cc3)C[C@@H](C(=O)O)NC(=O)[C@H](Cc3ccc4ccccc4c3)NC(=O)[C@@H]1C2)C(C)(C)C :: 1

###

# System: His-BIR3 (241-356, XIAP) (Homo sapiens)
# Construct: additions of His-BIR3 (241-356, XIAP), fluorescein labeled SMAC peptide
# Assay: XIAP-BIR3/SMAC Homogeneous Time Resolved Fluorescence (HTRF) Assay
# Experimental context: fluorescein labeled SMAC peptide
Measurement kind: log10(IC50) (log10 of the value in µM)

CC[C@H](NC(=O)[C@H](C)NC)C(=O)N1C[C@@H]2C[C@H]1C(=O)N[C@@H](Cc1ccc(-c3ccccc3)cc1)C(=O)N[C@H](C(=O)O)Cc1ccc(cc1)C(=O)N[C@H]1C[C@@H](C(=O)N[C@@H](Cc3ccc4ccccc4c3)C(=O)N[C@H](C(=O)O)Cc3ccc(cc3)OC/C=C/CO2)N(C(=O)[C@@H](NC(=O)[C@H](C)NC)C(C)(C)C)C1 :: -1.79
CN[C@@H](C)C(=O)N[C@H](C(=O)N1C[C@H]2C/C=C/COc3ccc(cc3)C[C@@H](C(=O)NS(=O)(=O)C3CC3)NC(=O)[C@H](Cc3ccc4ccccc4c3)NC(=O)[C@@H]3C[C@H](C/C=C/COc4ccc(cc4)C[C@@H](C(=O)O)NC(=O)[C@H](Cc4ccc5ccccc5c4)NC(=O)[C@@H]1C2)CN3C(=O)[C@@H](NC(=O)[C@H](C)NC)C(C)(C)C)C(C)(C)C :: -2.41
CN[C@@H](C)C(=O)N[C@H](C(=O)N1C[C@@H]2C[C@H]1C(=O)N[C@@H](Cc1ccc3ccccc3c1)C(=O)N[C@H](C(=O)O)Cc1ccc(cc1)OCc1cn(nn1)[C@H]1C[C@@H](C(=O)N[C@@H](Cc3ccc4ccccc4c3)C(=O)N[C@H](C(=O)NS(C)(=O)=O)Cc3ccc(cc3)OCCCCO2)N(C(=O)[C@@H](NC(=O)[C@H](C)NC)C(C)(C)C)C1)C(C)(C)C :: -1.71
CN[C@@H](C)C(=O)N[C@H](C(=O)N1C[C@@H]2C[C@H]1C(=O)N[C@@H](Cc1ccc3ccccc3c1)C(=O)N[C@H](C(=O)O)Cc1ccc(cc1)CCCC[C@H]1C[C@@H](C(=O)N[C@@H](Cc3ccc4ccccc4c3)C(=O)N[C@H](C(=O)NS(=O)(=O)C3CC3)Cc3ccc(cc3)OCc3cn2nn3)N(C(=O)[C@@H](NC(=O)[C@H](C)NC)C(C)(C)C)C1)C(C)(C)C :: -2.55
CN[C@@H](C)C(=O)N[C@H](C(=O)N1C[C@H]2C/C=C/COc3ccc(cc3)C[C@@H](C(=O)NS(=O)(=O)C3CC3)NC(=O)[C@H](Cc3ccc4ccccc4c3)NC(=O)[C@@H]3C[C@@H](CN3C(=O)[C@@H](NC(=O)[C@H](C)NC)C(C)(C)C)n3cc(nn3)COc3ccc(cc3)C[C@@H](C(=O)O)NC(=O)[C@H](Cc3ccc4ccccc4c3)NC(=O)[C@@H]1C2)C(C)(C)C :: -3.05
CN[C@@H](C)C(=O)N[C@H](C(=O)N1C[C@@H]2C[C@H]1C(=O)N[C@@H](Cc1ccc3ccccc3c1)C(=O)N[C@H](C(=O)O)Cc1ccc(cc1)C(=O)N[C@H]1C[C@@H](C(=O)N[C@@H](Cc3ccc4ccccc4c3)C(=O)N[C@H](C(=O)O)Cc3ccc(cc3)OC/C=C/CO2)N(C(=O)[C@@H](NC(=O)[C@H](C)NC)C(C)(C)C)C1)C1CCCCC1 :: -1.55
CN[C@@H](C)C(=O)N[C@H](C(=O)N1C[C@@H]2C[C@H]1C(=O)N[C@@H](Cc1ccc3ccccc3c1)C(=O)N[C@H](C(=O)O)Cc1ccc(cc1)OC/C=C/CO[C@H]1C[C@@H](C(=O)N[C@@H](C(c3ccccc3)c3ccccc3)C(=O)N[C@H](C(=O)NS(=O)(=O)C3CC3)Cc3ccc(cc3)OCc3cn2nn3)N(C(=O)[C@@H](NC(=O)[C@H](C)NC)C(C)(C)C)C1)C(C)(C)C :: -0.98
CN[C@@H](C)C(=O)N[C@H](C(=O)N1C[C@@H]2C[C@H]1C(=O)N[C@@H](Cc1ccc3ccccc3c1)C(=O)N[C@H](C(=O)O)Cc1ccc(cc1)OC/C=C/CO[C@H]1C[C@@H](C(=O)N[C@@H](c3ccccc3)C(=O)N[C@H](C(=O)O)Cc3ccc(cc3)C(=O)N2)N(C(=O)[C@@H](NC(=O)[C@H](C)NC)C(C)(C)C)C1)C(C)(C)C [Example 51] :: -1.21
CN[C@@H](C)C(=O)N[C@@H](CC(=O)O)C(=O)N1C[C@@H]2C[C@H]1C(=O)N[C@@H](Cc1ccc3ccccc3c1)C(=O)N[C@H](C(=O)O)CCC(=O)N[C@H]1C[C@@H](C(=O)N[C@@H](Cc3ccc4ccccc4c3)C(=O)N[C@H](C(=O)O)Cc3ccc(cc3)OC/C=C/CO2)N(C(=O)[C@@H](NC(=O)[C@H](C)NC)C(C)(C)C)C1 :: -0.12
CN[C@@H](C)C(=O)N[C@H](C(=O)N1C[C@@H]2C[C@H]1C(=O)NC(Cc1ccc3ccccc3c1)C(=O)N[C@H](C(=O)NS(=O)(=O)CCCO)Cc1ccc(cc1)OCCCC[C@H]1C[C@@H](C(=O)N[C@@H](Cc3ccc4ccccc4c3)C(=O)N[C@H](C(=O)O)Cc3ccc(cc3)OCc3cn2nn3)N(C(=O)[C@@H](NC(=O)[C@H](C)NC)C(C)(C)C)C1)C(C)(C)C (stereo partly shown) :: -2.21
